Test system: S. pneumoniae
Test: MIC, broth microdilution
Assay type: cell-based, Streptococcus pneumoniae
Conditions: S. pneumoniae 21C315, Clinical, c-ermB
Form field: MIC (one value per entry).
Numeric only. Scale: µg/mL

Example entries and their recorded answers appear below.
CC[C@H]1OC(=O)[C@H](C)[C@@H](OC(=O)NCCCOCCC#Cc2ccc3c(=O)c(C(=O)O)cn(C)c3c2)[C@H](C)[C@@H](O[C@@H]2O[C@H](C)C[C@H](N(C)C)[C@H]2O)[C@](C)(OC)C[C@@H](C)C(=O)[C@H](C)[C@H]2NC(=O)O[C@@]21C [MCX-190] ... 0.12
CC[C@H]1OC(=O)[C@H](C)C(=O)[C@H](C)[C@@H](O[C@@H]2O[C@H](C)C[C@H](N(C)C)[C@H]2O)[C@](C)(OC)C[C@@H](C)C(=O)[C@H](C)[C@H]2N(CCCCn3cnc(-c4cccnc4)c3)C(=O)O[C@]12C [telithromycin, reference compound] ... 0.12

Shift focus to the following entry.
Return MIC measured with S. pneumoniae given this compound: CC[C@H]1OC(=O)[C@H](C)[C@@H](OC(=O)NCCCCCCC#Cc2ccc3c(=O)c(C(=O)O)cn(C)c3c2)[C@H](C)[C@@H](O[C@@H]2O[C@H](C)C[C@H](N(C)C)[C@H]2O)[C@](C)(OC)C[C@@H](C)C(=O)[C@H](C)[C@H]2NC(=O)O[C@@]21C [MCX-219]
0.016

====

Form field: MIC (one value per entry).
Tested on: M. catarrhalis
Assay: MIC, broth microdilution
Format: cell-based, Moraxella catarrhalis
Details: Moraxella catarrhalis; M. catarrhalis 13L332, Ery-S; read-out: MIC
Numeric only. Scale: µg/mL

Example entries and their recorded answers appear below.
CCOC(=O)c1cn(C)c2cc(C#CCCCCCCNC(=O)O[C@H]3[C@H](C)[C@@H](O[C@@H]4O[C@H](C)C[C@H](N(C)C)[C@H]4O)[C@](C)(OC)C[C@@H](C)C(=O)[C@H](C)[C@H]4NC(=O)O[C@]4(C)[C@@H](CC)OC(=O)[C@@H]3C)ccc2c1=O [88h] ... 4
CC[C@H]1OC(=O)[C@H](C)[C@@H](OC(=O)NCCCOCCC#Cc2ccc3c(=O)c(C(=O)O)cn(CC)c3c2)[C@H](C)[C@@H](O[C@@H]2O[C@H](C)C[C@H](N(C)C)[C@H]2O)[C@](C)(OC)C[C@@H](C)C(=O)[C@H](C)[C@H]2NC(=O)O[C@@]21C [95f] ... 0.5
CC[C@H]1OC(=O)[C@H](C)[C@@H](OC(=O)NCCCOCCC#Cc2ccc3c(=O)c(C(=O)O)cn(C)c3c2)[C@H](C)[C@@H](O[C@@H]2O[C@H](C)C[C@H](N(C)C)[C@H]2O)[C@](C)(OC)C[C@@H](C)C(=O)[C@H](C)[C@H]2NC(=O)O[C@@]21C [MCX-190] ... 0.25

Value lookup for MIC; key = CC[C@H]1OC(=O)[C@H](C)[C@@H](OC(=O)NCCCCOCCC#Cc2ccc3c(=O)c(C(=O)O)cn(C)c3c2)[C@H](C)[C@@H](O[C@@H]2O[C@H](C)C[C@H](N(C)C)[C@H]2O)[C@](C)(OC)C[C@@H](C)C(=O)[C@H](C)[C@H]2NC(=O)O[C@@]21C [96g]
0.5

Value lookup for MIC; key = CC[C@H]1OC(=O)[C@H](C)[C@@H](OC(=O)NCCCCCCC#Cc2ccc3c(=O)c(C(=O)O)cn(C)c3c2)[C@H](C)[C@@H](O[C@@H]2O[C@H](C)C[C@H](N(C)C)[C@H]2O)[C@](C)(OC)C[C@@H](C)C(=O)[C@H](C)[C@H]2NC(=O)O[C@@]21C [MCX-219]
0.5
